target: Hepatic sodium/bile acid cotransporter (Homo sapiens, UniProt Q14973); test: Inhibition of preS1-peptide binding to human HA-tagged NTCP in U2OS expresseing NTCP in incubated for 24 hrs using Myrcludex B as substrate by competitive binding assay; format: cell-based
Sequence (Q14973 whole entry): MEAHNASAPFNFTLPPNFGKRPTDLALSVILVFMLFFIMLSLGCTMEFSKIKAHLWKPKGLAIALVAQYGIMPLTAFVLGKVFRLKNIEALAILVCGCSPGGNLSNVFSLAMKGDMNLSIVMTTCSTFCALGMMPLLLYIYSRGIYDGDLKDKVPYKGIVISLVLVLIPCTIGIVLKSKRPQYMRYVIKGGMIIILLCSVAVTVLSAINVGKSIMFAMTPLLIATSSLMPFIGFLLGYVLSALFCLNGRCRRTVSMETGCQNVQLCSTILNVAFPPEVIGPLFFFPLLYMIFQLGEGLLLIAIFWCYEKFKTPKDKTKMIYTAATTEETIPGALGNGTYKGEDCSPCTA

| Compound | IC50 |
| --- | --- |
| COc1cc(-c2ccc(/N=N/c3ccc4c(S(=O)(=O)O)cc(S(=O)(=O)O)c(N)c4c3O)c(OC)c2)ccc1/N=N/c1ccc2c(S(=O)(=O)O)cc(S(=O)(=O)O)c(N)c2c1O [CHICAGO SKY BLUE] | > 1000 nM |
| COc1cc(C(=O)NS(=O)(=O)c2ccccc2C)ccc1Cc1cn(C)c2ccc(NC(=O)OC3CCCC3)cc12 [ZAFIRLUKAST] | > 1000 nM |
| O=C(O)c1cc(/N=N/c2ccc(S(=O)(=O)Nc3ccccn3)cc2)ccc1O [SULFASALAZINE] | > 1000 nM |
